Entries and their reduction in metabolic activity
system: Hela pTRE-LucIVS2 cells; experiment: ALAMARBLUE toxicity assay of CPP-PNA705; assay type: cell-based; settings: 10 μM CPP-PNA705 conjugate, after 24 hours

residue string	reduction in metabolic activity, %
GRKKRWFRRRRMKWKK [CPP-2]	10
RKKRWFRRRRPKWKK [CPP-1]	20
